The measured values listed here are drawn from ChEMBL document CHEMBL2146360.

tested target: UniProt Q9QUK6
Sequence (Q9QUK6 whole entry): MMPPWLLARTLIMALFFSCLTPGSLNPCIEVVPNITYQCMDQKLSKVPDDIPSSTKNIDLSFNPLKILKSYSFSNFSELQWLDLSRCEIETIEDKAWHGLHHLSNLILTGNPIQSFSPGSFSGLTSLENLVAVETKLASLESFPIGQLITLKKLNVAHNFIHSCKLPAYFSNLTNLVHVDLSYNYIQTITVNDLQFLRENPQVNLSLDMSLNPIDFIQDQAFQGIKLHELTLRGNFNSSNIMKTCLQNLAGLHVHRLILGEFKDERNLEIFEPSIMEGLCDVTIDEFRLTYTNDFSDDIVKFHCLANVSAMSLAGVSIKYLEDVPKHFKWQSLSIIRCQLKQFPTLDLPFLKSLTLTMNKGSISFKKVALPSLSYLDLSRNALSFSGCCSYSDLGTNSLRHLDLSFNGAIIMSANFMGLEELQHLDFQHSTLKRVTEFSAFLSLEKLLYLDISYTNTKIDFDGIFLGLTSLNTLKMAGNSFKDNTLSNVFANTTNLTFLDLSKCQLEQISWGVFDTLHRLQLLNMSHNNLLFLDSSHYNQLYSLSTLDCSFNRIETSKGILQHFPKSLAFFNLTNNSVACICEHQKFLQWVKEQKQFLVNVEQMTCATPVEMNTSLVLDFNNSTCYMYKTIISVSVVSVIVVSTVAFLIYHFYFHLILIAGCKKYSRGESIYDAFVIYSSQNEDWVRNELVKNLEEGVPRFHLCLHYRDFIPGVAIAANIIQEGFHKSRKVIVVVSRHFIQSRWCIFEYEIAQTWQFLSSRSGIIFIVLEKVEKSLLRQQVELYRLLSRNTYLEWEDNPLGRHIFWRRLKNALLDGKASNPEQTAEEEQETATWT
experimental details: Inhibition of TLR4 in LPS-stimulated mouse RAW264.7 cells assessed as reduction of NO production after 24 hrs
Format: cell-based
pIC50: −log10 of the molar value.
reported metric: pIC50

molecule | pIC50
COC(=O)C(=Cc1ccc(N(C)C)cc1)C(=O)OC | 5.51

[a] O=C(O)C(=Cc1ccccc1)C(=O)O
[b] COC(=O)C(=Cc1ccccc1F)C(=O)OC
[c] COC(=O)C(=Cc1ccc(Cl)cc1)C(=O)OC
Qu. In this exercise, place the 3 molecules in ascending sequence of their recorded pIC50. Submit the labels in the order that the ranking request calls for.
Ans. c, a, b
